meta.source: the supplement of paper PMC3545927

assayed.system: furin, P09958;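 also: purified furin at 1:10 enzyme:substrate in 50 mM HEPES pH 7.5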
Sequence (P09958 whole entry): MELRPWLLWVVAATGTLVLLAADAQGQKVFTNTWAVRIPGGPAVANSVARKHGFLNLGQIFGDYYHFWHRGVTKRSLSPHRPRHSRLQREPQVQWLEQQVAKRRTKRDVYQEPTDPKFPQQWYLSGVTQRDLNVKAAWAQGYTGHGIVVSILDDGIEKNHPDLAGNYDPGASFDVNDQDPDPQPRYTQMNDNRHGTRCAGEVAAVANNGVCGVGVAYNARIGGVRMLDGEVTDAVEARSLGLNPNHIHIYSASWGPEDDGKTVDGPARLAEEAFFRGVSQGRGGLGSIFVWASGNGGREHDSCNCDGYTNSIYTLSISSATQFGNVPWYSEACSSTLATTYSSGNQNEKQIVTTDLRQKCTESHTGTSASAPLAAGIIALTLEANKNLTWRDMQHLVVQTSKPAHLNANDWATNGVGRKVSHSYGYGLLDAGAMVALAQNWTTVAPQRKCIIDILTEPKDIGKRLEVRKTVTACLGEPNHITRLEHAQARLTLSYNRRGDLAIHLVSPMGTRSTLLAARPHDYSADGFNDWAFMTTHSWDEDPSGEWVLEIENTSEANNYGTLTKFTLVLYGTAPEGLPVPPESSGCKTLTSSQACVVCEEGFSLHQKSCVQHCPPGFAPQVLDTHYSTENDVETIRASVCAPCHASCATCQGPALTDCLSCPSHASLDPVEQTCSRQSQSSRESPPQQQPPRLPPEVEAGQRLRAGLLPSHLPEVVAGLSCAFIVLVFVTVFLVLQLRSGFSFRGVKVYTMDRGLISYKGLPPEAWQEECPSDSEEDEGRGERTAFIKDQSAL
assay.details: furin cleavage Z-score vs untreated control; higher = more cleavage, active = 3.5 or more, inactive = 1 or less, 8 variable residues between constant flanks
measurement.setup: 7.5 min
Some of the results follow. How many sequences the whole screen found active is unknown.
measured.parameter: furin cleavage Z-score

sequence: CAWQRRLRRLAGNASASA [FS-895]
measured.parameter: furin cleavage Z-score
numeric.readout: 3.85

sequence: CAMEECSKHLAGNASASA [HC1734]
measured.parameter: furin cleavage Z-score
numeric.readout: 0.481

sequence: CARQRRGCFRAGNASASA [FS-2446]
measured.parameter: furin cleavage Z-score
numeric.readout: 1.29

sequence: CAMEECSWHLAGNASASA [HC1728]
measured.parameter: furin cleavage Z-score
numeric.readout: -0.727

sequence: CALKRRGKRSAGNASASA [FS-350]
measured.parameter: furin cleavage Z-score
numeric.readout: 12.2

sequence: CALPSRETRYAGNASASA [FS-1364]
measured.parameter: furin cleavage Z-score
numeric.readout: 2.17

sequence: CADWEVVTSTAGNASASA [HC2288]
measured.parameter: furin cleavage Z-score
numeric.readout: -1.03

sequence: CALSTGLIHLAGNASASA [HC503]
measured.parameter: furin cleavage Z-score
numeric.readout: 1.35

sequence: CAEKEVPCHRAGNASASA [HC2454]
measured.parameter: furin cleavage Z-score
numeric.readout: 0.758

sequence: CAGSATLCSAAGNASASA [HC294]
measured.parameter: furin cleavage Z-score
numeric.readout: -0.289

sequence: CARPARVALPAGNASASA [FS-2053]
measured.parameter: furin cleavage Z-score
numeric.readout: -1.54

sequence: CARLRRSSSPAGNASASA [FS-2353]
measured.parameter: furin cleavage Z-score
numeric.readout: 9.29

sequence: CATNPKPQKKAGNASASA [HC162]
measured.parameter: furin cleavage Z-score
numeric.readout: -1.19

sequence: CARQRRPTGPAGNASASA [FS-2511]
measured.parameter: furin cleavage Z-score
numeric.readout: -1.58

sequence: CALRRRQKRQAGNASASA [FS-1234]
measured.parameter: furin cleavage Z-score
numeric.readout: 11.3

sequence: CARQRRLLAAAGNASASA [FS-3042]
measured.parameter: furin cleavage Z-score
numeric.readout: -1.14

sequence: CARLARGSPPAGNASASA [HC1255]
measured.parameter: furin cleavage Z-score
numeric.readout: 0.846

sequence: CACGKRFKKNAGNASASA [FS-219]
measured.parameter: furin cleavage Z-score
numeric.readout: 1.2

sequence: CAWAGWLLSPAGNASASA [HC207]
measured.parameter: furin cleavage Z-score
numeric.readout: -0.479

sequence: CARNKRTCSAAGNASASA [FS-2160]
measured.parameter: furin cleavage Z-score
numeric.readout: 2.24

sequence: CASLLAPGAKAGNASASA [HC361]
measured.parameter: furin cleavage Z-score
numeric.readout: -0.751

sequence: CAGIPFVSCQAGNASASA [HC1163]
measured.parameter: furin cleavage Z-score
numeric.readout: -0.0749

sequence: CAWLKRQKRNAGNASASA [FS-318]
measured.parameter: furin cleavage Z-score
numeric.readout: 12.5

sequence: CAFPDRVKRNAGNASASA [FS-770]
measured.parameter: furin cleavage Z-score
numeric.readout: 3.16

sequence: CAFLTRLRRPAGNASASA [FS-769]
measured.parameter: furin cleavage Z-score
numeric.readout: -0.966

sequence: CAEPRRQRRLAGNASASA [FS-1118]
measured.parameter: furin cleavage Z-score
numeric.readout: 3.93

sequence: CADITKLLLAAGNASASA [HC604]
measured.parameter: furin cleavage Z-score
numeric.readout: -1.43

sequence: CAGDSRQRRLAGNASASA [FS-424]
measured.parameter: furin cleavage Z-score
numeric.readout: -0.0244

sequence: CADNTTTSSEAGNASASA [HC1342]
measured.parameter: furin cleavage Z-score
numeric.readout: -1.15

sequence: CARQRREMVAAGNASASA [FS-2589]
measured.parameter: furin cleavage Z-score
numeric.readout: 4.84
